# TARGET UNDER TEST: the molecule itself
# ASSAY DETAILS: SEC; Superose 6 Increase 10/300 GL; 50 mM Tris-HCl (pH 8.0), 300 mM NaCl, 10 mM MgCl2; oligomeric state calculated from elution volumes of proteins of known size
VALUE KIND: stoichiometry N
Enter a number only.

QUERY: Which measured stoichiometry N value corresponds to KpUGP E238Q (enzyme, UDP-glucose pyrophosphorylase (galU gene product) of K. pneumoniae DSM 30104; mutant of Strep-KpUGP; tag as in m1; no cleavage described) MAALNSKVRKAVIPVAGLGTRMLPATKAIPKEMLPLVDKPLIQYVVNECIAAGITEIVLVTHSSKNSIENHFDTSFELEAMLEKRVKRQLLEEVQSICPPHVTIMQVRQGLAKGLGHAVLCAHPVVGDEPVAVILPDVILDEYESDLSRDNLAEMISRFDETGASQIMVEPVEDVTAYGVVDCKGESLKPGESVPMVGVVEKPKADVAPSNLAVVGRYVLSADIWPLLAKTPPGAGDQIQLTDAIDMLIEKETVEAYHMKGKSHDCGNKLGYMQAFVEYGIRHKTLGDDFKAWLETAVAK ?
RESULT: 4.4

QUERY: Which measured stoichiometry N value corresponds to KpUGP R108A (enzyme, UDP-glucose pyrophosphorylase (galU gene product) of K. pneumoniae DSM 30104; mutant of Strep-KpUGP; tag as in m1; no cleavage described) MAALNSKVRKAVIPVAGLGTRMLPATKAIPKEMLPLVDKPLIQYVVNECIAAGITEIVLVTHSSKNSIENHFDTSFELEAMLEKRVKRQLLEEVQSICPPHVTIMQVAQGLAKGLGHAVLCAHPVVGDEPVAVILPDVILDEYESDLSRDNLAEMISRFDETGASQIMVEPVEDVTAYGVVDCKGESLKPGESVPMVGVVEKPKADVAPSNLAVVGRYVLSADIWPLLAKTPPGAGDEIQLTDAIDMLIEKETVEAYHMKGKSHDCGNKLGYMQAFVEYGIRHKTLGDDFKAWLETAVAK ?
RESULT: 2.2
